Overview of reported MFI across a group of binders:
Biological target: T1, LILRA1 on reporter cells (extracellular domain) (UniProt O75019 17-461, limits assumed)
T1 construct: extracellular domain
T1 sequence (O75019 17-461 limits assumed): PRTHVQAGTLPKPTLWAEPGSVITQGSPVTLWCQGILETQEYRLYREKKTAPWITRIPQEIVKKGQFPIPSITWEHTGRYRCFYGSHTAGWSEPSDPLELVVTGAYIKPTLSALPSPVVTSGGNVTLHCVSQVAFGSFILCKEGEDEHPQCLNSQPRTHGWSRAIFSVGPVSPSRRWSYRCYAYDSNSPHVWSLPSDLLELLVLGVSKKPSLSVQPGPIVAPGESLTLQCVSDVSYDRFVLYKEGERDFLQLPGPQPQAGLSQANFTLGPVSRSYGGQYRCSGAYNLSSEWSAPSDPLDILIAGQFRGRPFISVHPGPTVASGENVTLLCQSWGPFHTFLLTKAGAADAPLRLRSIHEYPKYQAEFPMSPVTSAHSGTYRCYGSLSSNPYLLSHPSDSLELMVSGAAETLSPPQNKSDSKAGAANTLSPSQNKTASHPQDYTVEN
Assay: flow cytometry, reporter cells
Method: FIG. 29. Binding of LILRB2 antibodies on reporter cell line expressing ectodomain of LILR family proteins on cell surface. Bound antibodies were detected with anti-human Fc-specific secondary antibody (2nd Ab) conjugated to AF647. […] All incubations were performed for 30 minutes at 4° C. Data shown is mean fluorescence intensity after sample acquisition in flow cytometer.

Reference set (3 entries):
[
  {
    "binder": "B2-7 (antibody, V domains shown, also called B2-7_HC; B2-7_LC) VH: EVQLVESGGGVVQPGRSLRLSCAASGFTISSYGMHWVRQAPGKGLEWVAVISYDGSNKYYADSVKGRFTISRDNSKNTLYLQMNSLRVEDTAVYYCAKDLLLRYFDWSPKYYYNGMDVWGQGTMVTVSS VL: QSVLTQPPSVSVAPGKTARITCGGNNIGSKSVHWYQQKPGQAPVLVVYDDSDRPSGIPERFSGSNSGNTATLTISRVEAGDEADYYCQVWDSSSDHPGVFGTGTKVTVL",
    "MFI": 12
  },
  {
    "binder": "B2-15 (antibody, V domains shown, also called B-15; B2-15_HC) VH: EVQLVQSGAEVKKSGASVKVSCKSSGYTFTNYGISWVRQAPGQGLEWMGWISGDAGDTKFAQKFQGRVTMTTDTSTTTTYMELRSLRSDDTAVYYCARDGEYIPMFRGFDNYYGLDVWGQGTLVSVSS VL: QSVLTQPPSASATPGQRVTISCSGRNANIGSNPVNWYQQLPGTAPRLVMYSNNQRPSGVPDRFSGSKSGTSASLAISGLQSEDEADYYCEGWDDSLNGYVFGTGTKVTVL",
    "MFI": 10
  },
  {
    "binder": "B2-17 (antibody, V domains shown, also called B2-17_HC; B2-17_LC) VH: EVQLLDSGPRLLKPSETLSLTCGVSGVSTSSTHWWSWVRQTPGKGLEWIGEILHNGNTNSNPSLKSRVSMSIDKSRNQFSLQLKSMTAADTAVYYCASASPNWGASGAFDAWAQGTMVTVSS VL: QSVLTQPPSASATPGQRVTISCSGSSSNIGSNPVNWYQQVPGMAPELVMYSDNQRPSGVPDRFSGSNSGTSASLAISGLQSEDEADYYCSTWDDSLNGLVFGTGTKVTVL",
    "MFI": 11
  }
]

--- query ---
B2-16 (antibody, V domains shown, also called B2-16_HC; B2-16_LC) VH: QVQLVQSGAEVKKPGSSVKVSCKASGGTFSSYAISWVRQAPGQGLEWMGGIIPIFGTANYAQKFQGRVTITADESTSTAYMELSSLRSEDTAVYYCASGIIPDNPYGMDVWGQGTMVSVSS VL: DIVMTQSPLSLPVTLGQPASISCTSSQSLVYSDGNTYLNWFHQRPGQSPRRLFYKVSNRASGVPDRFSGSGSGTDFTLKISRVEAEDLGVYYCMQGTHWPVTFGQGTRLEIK yielded MFI of 12
